- Tested on: Nonstructural protein 5A (Hepatitis C virus), Q5L478 [UNDEFINED MUTATION]
- Assay notes: Inhibition of HCV genotype-1a NS5A L31V mutant infected in human HuH7 cells by luciferase reporter gene assay
- Format: cell-based
- Run conditions: Hepatitis C virus subtype 1a; Huh-7
Reported endpoint: EC90 (nM)
Number only, in nM; omit the unit.

Study these solved cases before continuing.
Molecule	Target	Reported endpoint	Measurement
COC(=O)N[C@H](C(=O)N1CCC[C@H]1c1ncc(-c2cc(F)c3c(c2)OC(c2ccc(C4CC4)s2)n2c-3cc3cc(-c4cnc([C@@H]5CCCN5C(=O)[C@@H](NC(=O)OC)C(C)C)[nH]4)ccc32)[nH]1)C(C)C (stereo not given in full)	Nonstructural protein 5A (Hepatitis C virus), Q5L478 [UNDEFINED MUTATION]	EC90	0.02
COC(=O)N[C@H](C(=O)N1CCC[C@H]1c1ncc(-c2cc(F)c3c(c2)OC(c2nc4ccccc4o2)n2c-3cc3cc(-c4cnc([C@@H]5CCCN5C(=O)[C@@H](NC(=O)OC)C(C)C)[nH]4)ccc32)[nH]1)C(C)C (stereo not given in full)	Nonstructural protein 5A (Hepatitis C virus), Q5L478 [UNDEFINED MUTATION]	EC90	0.042
COC(=O)N[C@H](C(=O)N1CCC[C@H]1c1ncc(-c2cc(F)c3c(c2)OC(c2ccc(C(F)(F)F)s2)n2c-3cc3cc(-c4cnc([C@@H]5CCCN5C(=O)[C@@H](NC(=O)OC)C(C)C)[nH]4)ccc32)[nH]1)C(C)C (stereo not given in full)	Nonstructural protein 5A (Hepatitis C virus), Q5L478 [UNDEFINED MUTATION]	EC90	0.097

GET /value?item= COC(=O)N[C@H](C(=O)N1CCC[C@H]1c1ncc(-c2cc(F)c3c(c2)OC(c2csc(C4CC4)c2)n2c-3cc3cc(-c4cnc([C@@H]5CCCN5C(=O)[C@@H](NC(=O)OC)C(C)C)[nH]4)ccc32)[nH]1)C(C)C (stereo not given in full) &field=EC90 returns 0.06

# EC90 (molecule: COC(=O)N[C@H](C(=O)N1CCC[C@H]1c1ncc(-c2cc(F)c3c(c2)OC(c2cnc(C(C)C)s2)n2c-3cc3cc(-c4cnc([C@@H]5CCCN5C(=O)[C@@H](NC(=O)OC)C(C)C)[nH]4)ccc32)[nH]1)C(C)C (stereo not given in full) ) is 0.022
